Please provide measured Morningglory plant response rating for the entries that follow.
Test system: morningglory
Test: Test A pre-/postemergence greenhouse test
Format: in vivo, Ipomoea spp.
Settings: Preemergence, 125 g ai/ha; 0 to 100 scale, 0 no effect, 100 complete control
Excerpt: Seeds of barnyardgrass (Echinochloa crus-galli), crabgrass (Digitaria sanguinalis), giant foxtail (Setaria faberi), morningglory (Ipomoea spp.), redroot pigweed (Amaranthus retroflexus), velvetleaf (Abutilon theophrasti), wheat (Triticum aestivum), and corn (Zea mays) were planted into a blend of loam soil and sand and treated preemergence with a directed soil spray using test compounds formulated in a non-phytotoxic solvent mixture which included a surfactant. […]
No unit in the answer, only the number.

Query :: # Morningglory plant response rating lookup, item CC(c1c(C(F)(F)F)nn(C)c1Cl)S(=O)(=O)c1ccc(Cl)c[n+]1[O-] (racemic)
Result :: 0

Query :: Now consider Cc1cc[n+]([O-])c([S+]([O-])Cc2c(C(F)(F)F)nn(C)c2OCC(F)(F)C(F)(F)F)c1 (stereo not shown) and answer again.
Result :: 0

Query :: Now consider Cn1nc(C(F)(F)F)c(CS(=O)(=O)c2cccc[n+]2[O-])c1Cl and answer again.
Result :: 40

Query :: Now consider O=S(=O)(Cc1c(C(F)(F)F)nn(CC(F)(F)F)c1Cl)c1cccc[n+]1[O-] and answer again.
Result :: 0

Query :: Now consider Cn1nc(C(F)(F)F)c(C[S+]([O-])c2cc(Cl)cc[n+]2[O-])c1OC(F)F (stereo not shown) and answer again.
Result :: 40

Query :: Now consider Cc1cc[n+]([O-])c([S+]([O-])Cc2c(C(F)(F)F)nn(C)c2OCC(F)F)c1 (stereo not shown) and answer again.
Result :: 50

Query :: Now consider Cn1nc(C(F)(F)F)c(CS(=O)(=O)c2cc(C3CC3)cc[n+]2[O-])c1OCC(F)(F)F and answer again.
Result :: 30

Query :: Now consider Cn1nc(C(F)(F)F)c(C[S+]([O-])c2cccc[n+]2[O-])c1OC(F)F (stereo not shown) and answer again.
Result :: 80

Query :: Now consider Cn1nc(C(F)(F)F)c(CS(=O)(=O)c2ccc(F)c[n+]2[O-])c1OC(F)F and answer again.
Result :: 0

Query :: Now consider Cn1nc(C(F)(F)F)c(C[S+]([O-])c2cc(C(F)(F)F)cc[n+]2[O-])c1Cl (racemic) and answer again.
Result :: 50

Query :: Now consider Cn1nc(C(F)(F)F)c(C[S+]([O-])c2ccc(Br)c[n+]2[O-])c1OC(F)F (racemic) and answer again.
Result :: 30

Query :: Now consider Cc1cc[n+]([O-])c(S(=O)(=O)Cc2c(C(F)(F)F)nn(C)c2OCC(F)(F)C(F)(F)F)c1 and answer again.
Result :: 0

Query :: Now consider Cn1nc(C(F)(F)F)c(CS(=O)(=O)c2cc(Br)cc[n+]2[O-])c1Cl and answer again.
Result :: 0

Query :: Now consider Cn1nc(C(F)(F)C(F)(F)F)c(CS(=O)(=O)c2ccc(Cl)c[n+]2[O-])c1OCC(F)(F)F and answer again.
Result :: 0

Query :: Now consider CC(Oc1c(CS(=O)(=O)c2ccc(Cl)c[n+]2[O-])c(C(F)(F)F)nn1C)C(F)(F)F (stereo not shown) and answer again.
Result :: 0

Query :: Now consider Cn1nc(C(F)(F)F)c(CS(=O)(=O)c2ccc(Cl)c[n+]2[O-])c1OCC(F)(F)F and answer again.
Result :: 20

FYI, the data here is from patent US20100298141A1.
